# systemUnderTest: T1, APC8401-AA
# T1 chain: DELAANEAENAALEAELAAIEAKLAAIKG
# assayInfo: two-hybrid library CCmax;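 further: natural log of median RNA to DNA barcode read ratio; higher means stronger binding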
# measurementSetup: mean of both orientations
readoutType: interaction score

Please review the entries below; each comes with its answer.
DKAAALKAKAAALKAKNAALKAENAALEG [APC3354-AA]; -1.48
DENAALEAKLAAIKAELAAIEAELAAIEG [APC4100-AA]; -1.35
DKAAALKAEAAALEAELAAEEAKNAALKG [APC3265-AA]; -1.36
DENAALEAKAAALKAKAAALKAELAAEEG [APC4336-AA]; -1.59
DKLAAIKAEAAALEAENAALEAEAAALEG [APC1242-AA]; -1.53

[I] DKLAAIKAKLAANKAKLAAIKAELAAEEG [APC1916-AA]
[II] DKAAALKAELAANEAELAANEAKLAAIKG [APC3881-AA]
Param metric = interaction score; output whichever of I , II has the minimum value. Respond using the label that marks the chosen record.
II
